Recorded values, source paper PMC8471592.

# measured target: HLA-DRB1*11:04 (Homo sapiens, UniProt P01903+P01911, A100R/A169T/A87E/I96F/K41T/L162R/M171V/P40S/Q125H/Q178H/Q39Y/Q99D/R42S/S66Y/T262R/W38E)
# assay: Competitive inhibition HLA II binding assay
# reported conditions: competition with radiolabeled probe peptide, purified HLA II, 0.3 nM–30 µM, 2-day incubation; mean of three or more independent assays
Ends that are not written are not given here.
parameter measured: IC50 (nM)
Write the value in nM as a bare number.

Give the reported value of IC50 for this record: KEKFRDIRRFIP [RVC1582–1592]
101

----------
Reported IC50 values for a set of sequences
# measured target: HLA-DRB1*08:02 (Homo sapiens, UniProt P01903+P01911, A100R/A103L/A169T/F76Y/H45Y/I96F/K41T/L162R/M171V/P40S/Q125H/Q178H/Q39Y/Q99D/R218S/R42G/S66Y/V115G/W38E)
# assay: Competitive inhibition HLA II binding assay
# reported conditions: competition with radiolabeled probe peptide, purified HLA II, 0.3 nM–30 µM, 2-day incubation; mean of three or more independent assays
Ends that are not written are not given here.
Could you give me the number in nM? Just the number is fine.

sequence chain: KEKFRDIRRFIP [RVC1582–1592]
IC50 / nM: 44

// next item, IC50 requested
Check the records and state IC50 for DLPYVTYLKDELR [RVC1835–1847]
2600

----------
# measured target: HLA-DRB1*04:04 (Homo sapiens, UniProt P01903+P01911, A100R/A169T/F76Y/I96L/K127E/L162R/M171V/N62H/P40V/Q125Y/R42H/S133A/S149N/S66Y/V209L/W38E)
# assay: Competitive inhibition HLA II binding assay
# reported conditions: competition with radiolabeled probe peptide, purified HLA II, 0.3 nM–30 µM, 2-day incubation; mean of three or more independent assays
Ends that are not written are not given here.
parameter measured: IC50 (nM)
Your answer should be a plain number; it is taken to be in nM.

Give me measured IC50, please, for this sequence: INLRTNNSSTIVVPYIN [RVC258–274]
3430

Determine its reported IC50: DLPYVTYLKDELR [RVC1835–1847]
773

Supply recorded IC50 for KEKFRDIRRFIP [RVC1582–1592] here.
8680

Retrieve IC50 measured for GLEPLDLNTSAGFPYV [RVC1791–1806] and print it.
1100

----------
# measured target: HLA-DRB1*13:02 (Homo sapiens, UniProt P01903+P01911, A100E/A169T/K41T/L162R/M171V/P40S/Q125H/Q178H/Q39Y/Q99D/R42S/S66N/T262R/V115G/W38E/Y61H)
# assay: Competitive inhibition HLA II binding assay
# reported conditions: competition with radiolabeled probe peptide, purified HLA II, 0.3 nM–30 µM, 2-day incubation; mean of three or more independent assays
Ends that are not written are not given here.
parameter measured: IC50 (nM)
Value expressed in nM; do not type the unit.

sequence chain: GLEPLDLNTSAGFPYV [RVC1791–1806]
IC50, nM: 62

Lab note: next sequence to report on.
Look up and state reported IC50 for INLRTNNSSTIVVPYIN [RVC258–274]
40
